experiment: chemical genetic growth profiling, strain panel (AID 1159580);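 further: tested at 20 µM; growth read once vehicle control cultures reached saturation at 30 °C; 1 = growth at the plate median or of vehicle wells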; conditions: S. cerevisiae deletion strains, growth OD, locus YNL209W, strain ssb2, stronger effect = lower value
About 2,000 (36%) of roughly 5,500 compounds were called active. Roughly 18% stayed inconclusive and do not appear here. The list shows a part of the results.
Category scheme (normalized growth): bin A: < 0.9; bin B: ≥ 0.9 and < 1; bin C: ≥ 1

The following compounds have reported results that may help.
For "COc1cc(C(C)=O)cc(OC)c1O" , which normalized growth bin applies?
bin C

State the band of "CN(C)CCCN1c2ccccc2CCc2ccccc21"
bin C

Kindly state the category for this compound: "CC1=CC(=O)c2c(O)cccc2C1=O"
bin A

Class (by measured normalized growth) for "CC(C)=CCc1c2c(c3occ(-c4ccc(O)cc4)c(=O)c3c1O)C=CC(C)(C)O2"
bin A

Lab note: sort CC1=CCCC2C1(C)CCC(C)C2(C)CC/C(C)=C/C[n+]1cn(C)c2c(N)ncnc21 (configuration not stated) into the matching normalized growth band.
bin B

More entries:
Hello team, could you let me know which band the following compound falls into: CC(Cc1cccc(C(F)(F)F)c1)NCCOC(=O)c1ccccc1 (configuration not stated)
bin B

For this compound, which bin applies? "CN(C)CCCN1c2ccccc2Sc2ccc(Cl)cc21"
bin A

###

assay: chemical genetic growth profiling, strain panel (AID 1159580); details: S. cerevisiae deletion strains, growth OD, locus YJL129C, strain trk1, stronger effect = lower value
The whole screen tested about 5,500 compounds, of which about 2,000 (36%) were called active. Roughly 18% stayed inconclusive and do not appear here. The list shows a part of the results.
readout: normalized growth
Respond with the number and no other words.

Consider the following illustrative entries.
Would you kindly share the measured normalized growth for "COC(=O)/C(=C1\OC(=O)C(c2ccccc2)=C1O)c1ccccc1" ?
0.917

Any idea what normalized growth was measured for CC12CCC3C(CC3(C)C)C(C)(CCC1=O)O2 (stereo not given) ?
0.991

Looking for the measured normalized growth of "Nc1ccc(C(=O)O)cc1" , can you help?
1.02

***
Which measured normalized growth value corresponds to "NS(=O)(=O)c1cc2c(cc1Cl)NC(CSCc1ccccc1)=NS2(=O)=O" ?
1.06

Name the reported normalized growth value associated with the molecule "CCOC(=O)[C@H](CCc1ccccc1)N[C@@H](C)C(=O)N1CCC[C@H]1C(=O)O"
0.954

###

Each record here notes measured normalized growth.
assay: chemical genetic growth profiling, strain panel (AID 1159580); details: S. cerevisiae deletion strains, growth OD, locus YLL026W, stronger effect = lower value
In all, about 5,500 compounds went through this assay and about 2,000 (36%) were called active. Another 18% or so got no clear call; they are omitted. Some of the results follow.
Simply state the number, no unit and no words.

Worked examples follow.
Name the recorded normalized growth for "C=C1C[C@]23C[C@@]1(O)CC[C@H]2[C@@]12C=C[C@H](O)[C@@](C)(C(=O)O1)[C@H]2[C@@H]3C(=O)O" .
1.02

Fill in the blank: the reported normalized growth of CO[C@H]1CC(O[C@@H]2/C(C)=C/C[C@@H]3C[C@@H](C[C@]4(CC[C@H](C)[C@@H](C5CCCCC5)O4)O3)OC(=O)[C@@H]3C=C(C)/C(=N\O)[C@H]4OC/C(=C\C=C\[C@@H]2C)[C@]43O)O[C@@H](C)C1O (some centres not stated) is ____.
1.01

Which normalized growth value belongs to "CCCOc1ccc2nc(NC(=O)OC)[nH]c2c1" ?
1.01

For the compound "CCCSc1ccc2nc(NC(=O)OC)[nH]c2c1" , what normalized growth is on record?
1.01

May I ask what normalized growth has been recorded for CC(=O)O[C@H]1CC[C@@]2(C)C(C[C@@H](OC(C)=O)[C@@]3(C)C4=CC(=O)O[C@@H](c5ccoc5)[C@]4(C)CCC23)C1(C)C (some centres not stated) ?
0.995

Others:
Given the compound "CC(=O)N[C@@H](Cc1c[nH]c2ccccc12)C(N)=O" , what is its reported normalized growth?
1.02

Please give the measured normalized growth for this compound: CCC(C)[C@H]1O[C@]2(C=C[C@@H]1C)C[C@@H]1C[C@@H](C/C=C(\C)[C@@H](OC3C[C@H](OC)C(O[C@H]4C[C@H](OC)[C@@H](O)[C@H](C)O4)[C@H](C)O3)[C@@H](C)/C=C/C=C3\CO[C@@H]4[C@H](O)C(C)=C[C@@H](C(=O)O1)[C@]34O)O2 (some centres not stated)
0.886

###

assay: chemical genetic growth profiling, strain panel (AID 1159580); details: S. cerevisiae deletion strains, growth OD, locus YJL166W, strain qcr8, stronger effect = lower value
The whole screen tested about 5,500 compounds, of which about 2,000 (36%) were called active. Another 18% or so got no clear call; they are omitted. Some of the results follow.
readout: normalized growth
Hey, just send me the number, nothing else.

See these solved cases before continuing.
Given "NS(=O)(=O)c1cc2c(cc1Cl)NC(CSCc1ccccc1)=NS2(=O)=O" , state its recorded normalized growth.
1.04

Any idea what normalized growth was measured for "CN(C)[C@@H]1C(=O)C(C(N)=O)=C(O)[C@@]2(O)C(=O)C3=C(O)c4c(O)ccc(Cl)c4[C@@H](O)[C@H]3C[C@@H]12" ?
0.93

Tell me the measured normalized growth of "OC[C@H]1O[C@@H](O[C@@H]2[C@@H](CO)O[C@](O)(CO)[C@H]2O)[C@H](O)[C@@H](O)[C@H]1O" , please.
1.01

Given the compound "C=C1c2cccc(O)c2C(O)=C2C(=O)[C@]3(O)C(O)=C(C(N)=O)C(=O)[C@@H](N(C)C)[C@@H]3[C@@H](O)[C@H]12" , what is its reported normalized growth?
1.02

Others:
Record request: normalized growth value, item "Cc1nc(N)cc(C[n+]2csc(CCO)c2C)n1"
0.981

Find the recorded normalized growth belonging to CCC(C)[C@H]1O[C@]2(C=C[C@@H]1C)C[C@@H]1C[C@@H](C/C=C(\C)[C@@H](OC3C[C@H](OC)C(O[C@H]4C[C@H](OC)[C@@H](O)[C@H](C)O4)[C@H](C)O3)[C@@H](C)/C=C/C=C3\CO[C@@H]4[C@H](O)C(C)=C[C@@H](C(=O)O1)[C@]34O)O2 (some centres not stated) and report it.
0.916

Return reported normalized growth; argument: "CN(C)[C@@H]1C(=O)C(C(N)=O)=C(O)[C@@]2(O)C(=O)C3=C(O)c4c(O)cccc4[C@@](C)(O)[C@H]3[C@H](O)[C@@H]12"
1.03

###

assay: chemical genetic growth profiling, strain panel (AID 1159580);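 further: tested at 20 µM; growth read once vehicle control cultures reached saturation at 30 °C; 1 = growth at the plate median or of vehicle wells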; conditions: S. cerevisiae deletion strains, growth OD, locus YNR049C, strain mso1, stronger effect = lower value
About 2,000 (36%) of roughly 5,500 compounds were called active. Another 18% or so got no clear call; they are omitted. The list shows a part of the results.
Binary call on normalized growth with cut-off 1: strictly below means yes (1), and equality or higher means no (0).

A selection of reference data follows.
Is 1 strictly greater than the molecule's reported normalized growth? molecule: CC(C)c1ccc2c(c1)CCC1C(C)(C(N)=O)CCCC21C (stereo not given)
yes (1)

Strictly below 1: is that where normalized growth of CC(C)c1ccc2c(c1)CCC1[C@](C)(CN)CCC[C@]21C (stereo not given in full) sits?
no (0)

Lab note: normalized growth threshold 1. Does this molecule come in strictly under it? "COC(=O)/C(=C1\OC(=O)C(c2ccccc2)=C1O)c1ccccc1"
yes (1)

Turning now to a further record.
Is it true that normalized growth reported for "NC(=O)c1cccnc1" is less than 1?
yes (1)

###

test: chemical genetic growth profiling, strain panel (AID 1159580);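 further: tested at 20 µM; growth read once vehicle control cultures reached saturation at 30 °C; 1 = growth at the plate median or of vehicle wells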; conditions: S. cerevisiae deletion strains, growth OD, locus YCL061C, strain MRC1, stronger effect = lower value
Hit rate of the full screen: of about 5,500 compounds, about 2,000 (36%) were called active. About 18% were inconclusive and are not listed. This is one part of the list.
Item-by-item account of normalized growth

Consider the worked cases shown below.
// query normalized growth value for entry CC(=O)O[C@H]1CC[C@@]2(C)C(C[C@@H](OC(C)=O)[C@@]3(C)C4=CC(=O)O[C@@H](c5ccoc5)[C@]4(C)CCC23)C1(C)C (some centres undefined)
0.994 (inactive)

What value of measured normalized growth is listed for CC(=O)O[C@@H]1CC2C(C)(C)[C@H](O)C=C[C@]2(C)C2CC[C@]3(C)C(=CC(=O)O[C@H]3c3ccoc3)[C@@]21C (some centres undefined) ?
1 (inactive)

Requested read-out: normalized growth. Entry: "NS(=O)(=O)c1cc2c(cc1Cl)NC(CSCc1ccccc1)=NS2(=O)=O"
1.01 (inactive)

More entries:
What normalized growth value was documented for this compound, "OCc1ccccc1-c1ccccc1" ?
0.957 (inactive)

###

test: chemical genetic growth profiling, strain panel (AID 1159580);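 further: tested at 20 µM; growth read once vehicle control cultures reached saturation at 30 °C; 1 = growth at the plate median or of vehicle wells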; details: S. cerevisiae deletion strains, growth OD, locus YJR066W, strain TOR1 (second series), stronger effect = lower value
The campaign covered roughly 5,500 compounds. About 2,000 (36%) were called active. Roughly 18% stayed inconclusive and do not appear here. This is one part of the list.
readout: normalized growth
Lab note: record just the number, no unit beside it.

Fill in the blank: the reported normalized growth of "CC(=O)c1ccc(Cl)c(N=Cc2cc(Cl)cc(Cl)c2O)c1" is ____.
0.341

Would you kindly share the measured normalized growth for "Cc1ccc2nc(-c3ccc4c(c3)OCCO4)cn2c1" ?
0.911

Quick one: normalized growth for "Brc1ccc(-c2csc(-c3ccncc3)n2)cc1" ?
0.797

normalized growth lookup needed for "Cc1ccc(-n2cccc2)c(NS(=O)(=O)c2ccc(-c3ccno3)s2)c1" , thanks.
0.889

I'd like to know its normalized growth. The molecule in question is "Clc1ccc(CN2CCN(c3cccc4[nH]ccc34)CC2)cc1Cl"
0.958

Endpoint output: normalized growth of "CSc1n[nH]c(-c2cc(C(C)(C)C)oc2C)c1C#N" . Value?
0.897

Consider the molecule "NC(=S)N/N=C1/CCCc2ccccc21" and give its measured normalized growth.
0.824

Recorded normalized growth of "CCOC(=O)c1ccc(Cl)c(N=Cc2cc(Cl)cc(Cl)c2O)c1" , please.
0.622

May I ask what normalized growth has been recorded for "Clc1ccc(SCc2ccsc2-c2ncns2)cc1" ?
0.933

Returns the measured normalized growth for the input molecule. Input: "Cc1onc(-c2c(Cl)cccc2Cl)c1C(=O)O/N=C(/N)Cc1ccc(C(C)(C)C)cc1"
0.986

More entries:
Looking for the measured normalized growth of "O=S(=O)(Nc1ccccc1Oc1ccccc1)c1ccc(-c2ccno2)s1" , can you help?
0.919

Entry under review: C#CCSC1=NNC(c2ccccn2)S1 (configuration not stated) . Reported normalized growth?
0.124

Data origin: PubChem BioAssay AID1159580
